# assay system: human TGR5 (Homo sapiens, UniProt Q8TDU6)
# Construct: expressed in transfected cells; host or cells: HEK293
# Sequence (Q8TDU6 whole entry): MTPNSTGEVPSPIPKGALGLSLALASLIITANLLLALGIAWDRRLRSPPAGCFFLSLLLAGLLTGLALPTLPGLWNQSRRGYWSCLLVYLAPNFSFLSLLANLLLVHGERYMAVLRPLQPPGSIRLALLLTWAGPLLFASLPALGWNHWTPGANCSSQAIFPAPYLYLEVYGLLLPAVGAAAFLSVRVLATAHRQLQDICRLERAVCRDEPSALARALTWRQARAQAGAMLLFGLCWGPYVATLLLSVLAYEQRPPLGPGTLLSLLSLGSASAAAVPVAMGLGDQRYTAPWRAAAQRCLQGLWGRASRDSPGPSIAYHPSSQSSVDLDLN
# procedure details: Cell-based TGR5 assay (cAMP generation, HTRF)
# assay context: HEK293 cells stably transfected with human TGR5; cAMP by HTRF; 30 minutes at 37° C.; read-out: pEC50 Human TGR5 (converted)
readout label: EC50

# example entries with known answers
>  <compound>
O=C1NCCN1CCN(CCCSc1ccc(Cl)c(COC2(c3cnccc3-c3ccccc3OC3CC3)CC2)c1)C(=O)[C@@H](O)[C@@H](O)[C@H](O)[C@@H](O)CO

>  <EC50>
126 to 1000 nM

$$$$
>  <compound>
CC(C)(CO)CN(C[C@@H](O)[C@H](O)[C@@H](O)[C@@H](O)CO)C(=O)CCCSc1ccc(Cl)c(COC2(c3cnccc3-c3ccccc3OC3CC3)CC2)c1

>  <EC50>
126 to 1000 nM

$$$$

# input for lookup
### Prompt Consider the compound shown here: CC(CCCN(CCCN1CCCC1=O)C(=O)[C@@H](O)[C@@H](O)[C@H](O)[C@@H](O)CO)c1ccc(Cl)c(CNC2(c3cnccc3-c3ccccc3OC3CC3)CC2)c1 (stereo partly drawn) What is its recorded EC50?
### Response < 100 nM
